test system: HRV 21; test: Cytopathic effect (CPE) inhibition assay; format: cell-based, human rhinovirus; settings: Human rhinovirus sp., 72 h; host cell HeLa, 3 days, MEM/2% FBS, MTT assay; read-out: EC50 HRV 21
measureName: EC50

Previously resolved entries follow.
compound: CC(C)c1ccc2c(c1)OC1(O)c3ccccc3C(=O)C21NC(=O)C(=O)CCc1ccccc1 (centres unmarked) [Example 39]
EC50: > 9.5 µg/mL

compound: CC(C)c1ccc2c(c1)OC1(O)c3ccccc3C(=O)C21NC(=O)C(=O)c1c[nH]c2ccccc12 (centres unmarked) [Example 1]
EC50: > 7.91 µg/mL

compound: CC(C)c1ccc2c(c1)OC1(O)c3cccc(N)c3C(=O)C21NC(=O)C(=O)N(C)C (centres unmarked) [Example 31]
EC50: < 10 µg/mL

compound: COc1ccc(/C=C/C(=O)C(=O)NC23C(=O)c4ccccc4C2(O)Oc2cc(C(C)C)ccc23)cc1OC (centres unmarked) [Example 24]
EC50: > 10 µg/mL

compound: CCC(C)C(=O)C(=O)NC12C(=O)c3c(N)cccc3C1(O)Oc1cc(C(C)C)ccc12 (centres unmarked) [Example 40]
EC50: > 10 µg/mL

Record CCOC(=O)C(=O)NC12C(=O)c3cccc([N+](=O)[O-])c3C1(O)Oc1cc(C(C)C)ccc12 (centres unmarked) [Example 33] . Reported EC50: > 10 µg/mL

Documented EC50 of CCC(C)C(=O)C(=O)NC12C(=O)c3cccc([N+](=O)[O-])c3C1(O)Oc1cc(C(C)C)ccc12 (centres unmarked) [Example 28] : > 10 µg/mL

EC50 recorded for this compound, CC(C)c1ccc2c(c1)OC1(O)c3ccccc3C(=O)C21NC(=O)C(=O)N(C)C (centres unmarked) [Example 21] , is > 10 µg/mL
